protocol-notes: qHTS assay for measurement of the activity of small molecule inhibitors on Zika virus induced Caspase-3 activity in human astrocytoma cells (AID 1224859)
protocol-conditions: SNB-19 ZIKV-induced caspase-3/7, luminescence, 6 h; series mostly up to 45.7 µM
Activity calls are given as the source filed them. Calls come from the whole dose curve; as a rule, active = well fitted inhibition curve with a large enough effect; inconclusive = small, poorly fitted or top-dose-only effect; inactive = no such curve, though single readings can be large or run the other way.
Output constraint: value belongs to TRUE = active, FALSE = inactive

Check out these entries, answers already filled in.
C[C@H]1[C@H](NC(=O)C(=NOC(C)(C)C(=O)O)c2csc(N)n2)C(=O)N1S(=O)(=O)O    FALSE
O=C(O)c1ccc(-c2cc3cccnc3c(-c3ccc4nonc4c3)n2)cc1    FALSE
CC(C)(C)OC(=O)N[C@H]1CCCCCC=C[C@@H]2C[C@@]2(C(=O)NS(=O)(=O)C2CC2)NC(=O)[C@@H]2C[C@@H](OC(=O)N3Cc4cccc(F)c4C3)CN2C1=O    FALSE
CC(C)(C)c1ccc(C(O)CCCN2CCC(C(O)(c3ccccc3)c3ccccc3)CC2)cc1 (stereo not drawn)    FALSE
CC(C)(C)C(=O)Oc1ccc2c(c1)nc(NC(=O)c1cccc([N+](=O)[O-])c1)n2CCCO    FALSE
CC(C)n1nc(-c2ccc3oc(N)nc3c2)c2c(N)ncnc21    FALSE
CNC(=O)c1ccc2cc(C3(O)CCn4cncc43)ccc2c1 (stereo not drawn)    FALSE
COc1cc2ncnc(-n3nc(-c4ccccn4)nc3N)c2cc1OC    FALSE
NC(CO)(CO)CCc1ccc(Sc2cccc(OCc3ccccc3)c2)cc1Cl    FALSE
Cc1c(NC(=O)c2ccc(C(C)(C)C)cc2)cccc1-c1cn(C)c(=O)c(Nc2ccc(C(=O)N3CCOCC3)cc2)n1    TRUE

Prompt line: What did the test return for "OC[C@H]1O[C@@H](Oc2cc(O)cc(C=Cc3ccc(O)cc3)c2)[C@H](O)[C@@H](O)[C@H]1O" ?
Response line: FALSE

Prompt line: What did the test return for "COc1ccc2c(Oc3ccc(NC(=O)c4c(C)n(CC(C)(C)O)n(-c5ccccc5)c4=O)cc3F)ccnc2c1" ?
Response line: FALSE

Prompt line: What did the test return for "CCC(=O)O[C@]1(C(=O)CO)CC[C@H]2[C@@H]3CCC4=CC(=O)CC[C@]4(C)[C@@H]3CC[C@@]21C" ?
Response line: FALSE

Prompt line: What did the test return for Cc1cccc(C)c1OCC(C)N (stereo not drawn) ?
Response line: FALSE

Prompt line: What did the test return for "CO[C@H]1C[C@@H]2CC[C@@H](C)[C@@](O)(O2)C(=O)C(=O)N2CCCC[C@@H]2C(=O)O[C@H]([C@H](C)C[C@@H]2CC[C@H](OP(C)(C)=O)[C@H](OC)C2)CC(=O)[C@H](C)C=C(C)[C@@H](O)[C@@H](OC)C(=O)[C@H](C)C[C@H](C)C=CC=CC=C1C" ?
Response line: FALSE

Prompt line: What did the test return for "CC[C@]1(O)C[C@@H]2CN(CCc3c([nH]c4ccccc34)[C@@](C(=O)OC)(c3cc4c(cc3OC)N(C)[C@H]3[C@@](O)(C(=O)OC)[C@H](OC(C)=O)[C@]5(CC)C=CCN6CC[C@]43[C@@H]65)C2)C1" ?
Response line: FALSE

###

protocol-notes: qHTS of pediatric cancer cell lines to identify multiple opportunities for drug repurposing: Primary screen for Saos-2 cells (AID 1347097); note: nearly all actives have a fitted effect of over 40% in size
protocol-conditions: Saos-2 viability, CellTiter-Glo ATP luminescence, 48 h; series mostly up to 46 µM
Inconclusive results are not listed. Activity calls are given as the source filed them. The call rests on the fitted dose curve; in most records, active means well fitted cell-killing curve with a large enough effect; inconclusive means small, poorly fitted or top-dose-only effect; inactive means no such curve, though single readings can be large or run the other way.
Output constraint: value belongs to active, inactive

Check out these entries, answers already filled in.
CC(C)n1nc(-c2ccc3oc(N)nc3c2)c2c(N)ncnc21    active
CNC(=O)c1ccccc1Sc1ccc2c(C=Cc3ccccn3)n[nH]c2c1    active
O=c1cc(-c2ccc(O)cc2)oc2cc(O)cc(O)c12    active
COc1cccc(-c2cc(=O)c3ccccc3o2)c1N    inactive
CCN(CC)CCNC(=O)c1ccc(N)cc1    inactive
O=C(O)c1ccc(-c2c[nH]c3ncc(-c4ccccc4)cc23)cc1C1CCCC1    inactive

Prompt line: What did the test return for "CC(=Cc1ccccc1)C=C1SC(=S)N(CC(=O)O)C1=O" ?
Response line: inactive

Prompt line: What did the test return for "O=c1c(-c2ccc(O)cc2)coc2cc(O)ccc12" ?
Response line: inactive

Provenance of the data: PubChem BioAssay (NCATS)
